- system under test: T1, hFZD8 CRD-Fc (human, UniProt Q9H461 28-158, limits assumed)
- T1 construct: domain: CRD; bought (R&D Systems); not shown: Fc part
- T1 sequence (looked up): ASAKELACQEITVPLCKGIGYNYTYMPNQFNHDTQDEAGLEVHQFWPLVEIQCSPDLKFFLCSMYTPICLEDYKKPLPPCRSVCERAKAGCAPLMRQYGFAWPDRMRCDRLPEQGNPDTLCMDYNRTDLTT
- assay info: spot phage ELISA
# signal:noise ratio per record follows
attribute measured: signal:noise ratio

binder: ILTFEYFWILGLIL [SEQ ID NO 18]
reported measurement: 1.1

binder: FWMLLQEGFAFWFP [SEQ ID NO 7]
reported measurement: 6.4

binder: ACSYVIDLWNQCLT [SEQ ID NO 4]
reported measurement: 3.1

binder: ISLIEAMIALDRVF (also called Fz7-06) [SEQ ID NO 11]
reported measurement: 25.8

binder: ACSYVIDLWNLCLR [SEQ ID NO 9]
reported measurement: 1.5

binder: ERRVCYPWFEVSQP [SEQ ID NO 29]
reported measurement: 1.2

binder: DTDLHQWCLWFT [SEQ ID NO 6]
reported measurement: 9.3

binder: LPLFFLSYVL [SEQ ID NO 19]
reported measurement: 1.1

Values from patent US20190359653A1
